Data origin, for the record: paper PMC10810434

Tested on: HeLa
Test: In vitro antiproliferative MTT assay on HeLa
Format: cell-based, human
Settings: Homo sapiens, HeLa, up to 72 hours, mean of two independent measurements with three replicates each, read-out: Calculated IC50 ± SEM, HeLa
pIC50: −log10 of the molar value.
ASSAY METRIC: pIC50

                                   compound  study_system  assay_metric  endpoint_result
0  COC1(c2cc(=O)c3c(O)cc(OC(=O)CCC4=C(C)C(=O)C=C(C(C)C)C4=O)cc3o2)C=CC(=O)C=C1 [Compound 11]          HeLa         pIC50             5.45
1  CCCCOC1(c2cc(=O)c3c(O)cc(OC(=O)CCC4=C(C)C(=O)C=C(C(C)C)C4=O)cc3o2)C=CC(=O)C=C1 [Compound 13]          HeLa         pIC50             5.85
2  CCOC1(c2cc(=O)c3c(O)cc(OC(=O)CCC4=C(C)C(=O)C=C(C(C)C)C4=O)cc3o2)C=CC(=O)C=C1 [Compound 12]          HeLa         pIC50             5.63
